// provenance: ChEMBL document CHEMBL3507680

Protocol: Human HepG2 cell viability assay in 384 well format
Assay type: toxicity, cell-based
Parameters: dose 125 nL, time 70.5 hour; concentration not given beside the values
Protocol conditions: HepG2 cells, read-out: Inhibition
This section presents molecules with their documented cytotoxicity at 70.5 h values.
Hi! Could you send only the number? It should be in %, unit omitted.

Known results for molecules:
Cc1cc(CNC(=O)c2cn(CCC3CCCCN3)nn2)on1 (centres undefined)
-5.72
CNC(=O)C1(CCCc2ccccn2)CN(Cc2scnc2C)C1
27.6
COc1ccc(NC(=O)N(CCO)Cc2ccsc2)cc1
-3.63
CN(C)C(=O)C1(Oc2ccc(Cl)cc2)CCNCC1
-3.42
Cc1ccc(N2C[C@H]3OCC[C@H]3[C@H](C(=O)NCC3CC3)C2)nn1
-12.5
Cc1ccc(C(=O)N2CCCN(Cc3cscn3)CC2)o1
-6.95
CCN1CCNC(=O)C12CCN(C(=O)Cc1ccccn1)CC2
-1.44
CC(C)c1noc(C2CCN(C(=O)C3CCCO3)CC2)n1 (centres undefined)
-11.9

Give the measured cytotoxicity at 70.5 h for Cc1ccn2c(F)c(C(=O)N3CCC4(CCC(=O)N(C)C4)CC3)nc2c1
-10.1

Could you please provide reported cytotoxicity at 70.5 h for CNC(=O)COc1cccc(CNCc2c(C)noc2C)c1 ? Thanks!
10.2

Name the recorded cytotoxicity at 70.5 h of the molecule listed here: Cc1cc(C)n(CCCC(=O)N2CCc3ncc(Cl)cc3C2)n1
30.1

For the molecule CCNC(=O)N(C)C(c1cccnc1)C(C)C (centres undefined) , report cytotoxicity at 70.5 h.
-9.88

Indicate its recorded cytotoxicity at 70.5 h; the molecule in question is Cc1ccc(OCC(C)NC(=O)CN(C)c2ccc(C#N)cn2)cc1 (centres undefined)
-3.51

###

Listing of entries alongside the reported cytotoxicity at 70.5 h.
Protocol: Human HepG2 cell viability assay in 384 well format
Format: toxicity, cell-based
Parameters: dose 125 nL, time 70.5 hour; concentration not given beside the values
Protocol conditions: HepG2 cells, read-out: Inhibition
Record the value in %, omitting the unit from your answer.

Consider the worked cases shown below.
COCCC(=O)N1C[C@H]2CN(Cc3cccc(C)n3)C(=O)[C@H]2C1
-11.1
CC(=O)N1CCOC(c2c(C(=O)NC(C)(C)C)sc3ccccc23)C1 (stereo not given)
-13.1
CCc1ncc2c(n1)CN(CC(=O)NC1CCCCNC1=O)CC2 (stereo not given)
1.9
COC(=O)C(NC(=O)Nc1ccc(C(C)=O)cc1)C(C)C (stereo not given)
-5.76

Tell me cytotoxicity at 70.5 h reported for COCCN1C(=O)CO[C@H]2CN(CCCc3ccccc3)C[C@H]21
-1.96

Provide one value: measured cytotoxicity at 70.5 h of COCc1ncn2c1CN(S(=O)(=O)c1cccc(F)c1)CC2
-8.14

Supply recorded cytotoxicity at 70.5 h for O=C(c1ccnnc1)N1C[C@@H]2CC[C@H](Oc3cccc(F)c3)[C@@H]2C1 here.
-0.575

State its cytotoxicity at 70.5 h for this compound: COc1cccc(CN2CCCC(c3cc(C(N)=O)[nH]n3)C2)c1 (stereo not given)
-12.6

Find the measured cytotoxicity at 70.5 h of CCN(CC)Cc1cn2c(n1)CN(C(=O)Cc1ccsc1)CC2 and report it.
-5.15

Give a short answer stating reported cytotoxicity at 70.5 h for O=C(CCc1cc2n(n1)CCCN(C(=O)[C@H]1CCCO1)C2)NC1CC1 .
3.28
